Target: T1, human collagen type I, acid soluble, extracted from placenta (Sigma C7774) (human, UniProt P02452 162-1218; P08123 80-1119)
T1 construct: tissue extract, gelled and dried in wells; also called dried human collagen; h-Collagen
T1 sequence (P02452 162-1218 limits assumed, chain 1 of 2): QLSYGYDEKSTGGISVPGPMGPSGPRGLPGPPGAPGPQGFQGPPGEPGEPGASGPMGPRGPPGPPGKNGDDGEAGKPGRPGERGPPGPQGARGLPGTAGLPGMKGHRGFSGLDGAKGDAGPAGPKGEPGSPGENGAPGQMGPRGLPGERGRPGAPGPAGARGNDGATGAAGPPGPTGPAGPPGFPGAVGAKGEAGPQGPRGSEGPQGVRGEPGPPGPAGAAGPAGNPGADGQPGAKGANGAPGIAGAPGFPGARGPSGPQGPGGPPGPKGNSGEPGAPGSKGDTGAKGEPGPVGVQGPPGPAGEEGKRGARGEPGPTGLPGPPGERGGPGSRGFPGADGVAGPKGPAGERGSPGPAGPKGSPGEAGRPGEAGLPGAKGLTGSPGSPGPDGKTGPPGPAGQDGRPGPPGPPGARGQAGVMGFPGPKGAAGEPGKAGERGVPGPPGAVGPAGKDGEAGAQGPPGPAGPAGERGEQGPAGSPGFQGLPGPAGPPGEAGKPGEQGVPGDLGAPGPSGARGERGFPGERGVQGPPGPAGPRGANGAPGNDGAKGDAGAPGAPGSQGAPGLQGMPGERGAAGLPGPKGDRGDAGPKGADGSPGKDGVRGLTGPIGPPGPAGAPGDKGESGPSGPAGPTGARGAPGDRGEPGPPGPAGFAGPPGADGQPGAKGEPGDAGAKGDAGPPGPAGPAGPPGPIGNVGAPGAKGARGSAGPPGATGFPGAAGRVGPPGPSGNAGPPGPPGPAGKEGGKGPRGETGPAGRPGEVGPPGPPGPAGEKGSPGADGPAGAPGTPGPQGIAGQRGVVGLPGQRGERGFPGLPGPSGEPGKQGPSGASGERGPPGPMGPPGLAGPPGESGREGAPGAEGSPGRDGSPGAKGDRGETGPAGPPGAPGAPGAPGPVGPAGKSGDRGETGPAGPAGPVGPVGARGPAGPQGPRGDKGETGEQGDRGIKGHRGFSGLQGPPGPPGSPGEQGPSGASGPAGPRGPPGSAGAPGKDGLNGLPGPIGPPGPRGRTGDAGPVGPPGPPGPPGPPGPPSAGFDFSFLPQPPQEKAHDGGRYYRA
T1 sequence (P08123 80-1119 limits assumed, chain 2 of 2): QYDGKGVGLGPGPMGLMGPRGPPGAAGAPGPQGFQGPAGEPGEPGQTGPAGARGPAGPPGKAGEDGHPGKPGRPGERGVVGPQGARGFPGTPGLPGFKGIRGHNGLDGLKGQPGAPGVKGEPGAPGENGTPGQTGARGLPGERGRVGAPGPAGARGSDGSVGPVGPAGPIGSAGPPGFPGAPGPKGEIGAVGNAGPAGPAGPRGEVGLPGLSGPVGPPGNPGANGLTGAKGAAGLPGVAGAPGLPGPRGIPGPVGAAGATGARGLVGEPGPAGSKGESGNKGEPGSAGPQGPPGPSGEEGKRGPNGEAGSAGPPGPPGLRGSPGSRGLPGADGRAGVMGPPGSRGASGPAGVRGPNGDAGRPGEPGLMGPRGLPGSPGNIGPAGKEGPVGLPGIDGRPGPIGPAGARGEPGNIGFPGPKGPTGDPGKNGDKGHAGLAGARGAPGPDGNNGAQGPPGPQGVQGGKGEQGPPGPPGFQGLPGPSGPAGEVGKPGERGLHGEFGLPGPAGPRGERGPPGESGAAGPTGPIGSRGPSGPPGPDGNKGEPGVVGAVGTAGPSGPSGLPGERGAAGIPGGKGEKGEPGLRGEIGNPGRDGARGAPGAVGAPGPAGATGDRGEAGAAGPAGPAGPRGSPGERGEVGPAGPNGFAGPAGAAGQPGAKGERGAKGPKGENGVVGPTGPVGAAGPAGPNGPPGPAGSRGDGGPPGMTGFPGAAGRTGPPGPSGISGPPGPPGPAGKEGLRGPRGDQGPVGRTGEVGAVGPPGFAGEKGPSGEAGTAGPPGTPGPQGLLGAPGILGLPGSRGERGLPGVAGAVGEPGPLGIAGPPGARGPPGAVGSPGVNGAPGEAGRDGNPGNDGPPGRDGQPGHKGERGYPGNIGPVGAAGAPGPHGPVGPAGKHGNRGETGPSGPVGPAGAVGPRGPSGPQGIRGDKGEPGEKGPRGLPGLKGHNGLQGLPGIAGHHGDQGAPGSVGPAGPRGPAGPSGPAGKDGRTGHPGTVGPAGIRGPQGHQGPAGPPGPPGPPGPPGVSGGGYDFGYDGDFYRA
Test: dried collagen assay; also: test concentration or dose not given here
Bridge positions count the residues as written; N and C are the ends. Square brackets hold non-standard residues; d marks the D form. Ends that are not written are not given here.
outcomeMeasure: % bound (%)

Sample records with % bound:
{"columns": ["binder", "% bound, %"],
 "data": [
  ["PWTCRMTENTWVCDLN (disulfide 4-13 (inferred), cyclic, disulfide) [SEQ ID NO 47]", 22],
  ["YSACYQAGCWIW (disulfide 4-9 (inferred), cyclic, disulfide) [SEQ ID NO 109]", 21],
  ["YHASYQAGSWIW (printed without cysteines (S for C)) [SEQ ID NO 111]", 0],
  ["YHACYQAGCAIW (disulfide 4-9 (inferred), cyclic, disulfide) [SEQ ID NO 136]", 2],
  ["GQWACSGDEYTWHCNYE (disulfide 5-14 (inferred), cyclic, disulfide) [SEQ ID NO 140]", 84],
  ["YH[dA]CYQAGCWIW (disulfide 4-9 (inferred); not fully specified (C-terminus); printed as YHaCYQAGCWIW, cyclic, disulfide) [SEQ ID NO 154]", 24]
]}

1. MWNCTMTKSGWRCFEK (disulfide 4-13 (inferred), cyclic, disulfide) [SEQ ID NO 54]
2. SWHCALMGSRWVCGQN (disulfide 4-13 (inferred), cyclic, disulfide) [SEQ ID NO 71]
Q. Select the item whose % bound value is smaller, choosing between 1 and 2 . Lab note: record the label of whichever item you select.
A. 2
(2: 3%, 1: 12%)

These measurements were taken from patent US20080044360A1.
